# key: entry, value: ELISA PD-L1 Fc (RSU)
# tgt: T1, recombinant biotinylated PD-L1 (rhPD-L1/Fc Chimera, R&D Systems 156-B7) (human, UniProt Q9NZQ7 19-238, biotinylated (sites not given))
# T1 construct: Bought Fc chimera; also called human PD-L1
# procedureText: ELISA, lysate on plate-bound antigen
Express the result in RSU but write the number alone.

Summary for this binder, ISOP121AR5P1F7 (designed binder, not shown: small tags and cut ends, FN3 domain; E. coli lysate in the ELISA) LPAPKNLVVSRVTEDSARLSWQEHWDTSSNFDSFLIQYQESEKVGEAIVLTVPGSERSYDLTGLKPGTEYTISIYGVYNRKVLFYSNPLSAIFTT : ELISA PD-L1 Fc (RSU) is 64000
